test: Plasma pharmacokinetics of pamiparib (LC-MS/MS, non-compartmental); design: species or system human; settings: human, in vivo, 60 mg, Cmax, Single Dose (Cycle 1 Day 1)
quantity kind: Cmax
Numeric answer plus unit only.

Please report the recorded Cmax for C[C@]12CCCN1CC1=NNC(=O)c3cc(F)cc4[nH]c2c1c34 [pamiparib] . 1880 ng/mL

====

experiment: Plasma pharmacokinetics of pamiparib (LC-MS/MS, non-compartmental); design: species or system human; settings: human, in vivo, 120 mg, AUC0-9, Single Dose (Cycle 1 Day 1)
quantity kind: AUC(0-t)

Please report the recorded AUC(0-t) for C[C@]12CCCN1CC1=NNC(=O)c3cc(F)cc4[nH]c2c1c34 [pamiparib] . 21100 ng·h/mL
